Ref: ChEMBL document CHEMBL2086273

molecular target: UniProt P08183; assay: Inhibition of human ABCB1 expressed in mouse L5178 cells assessed as 50% inhibition of cell proliferation at compound-doxorubicin ratio of 40.8:1 after 48 hrs by MTT assay; type: cell-based; settings: l5178, 48 h
Sequence (P08183 whole entry): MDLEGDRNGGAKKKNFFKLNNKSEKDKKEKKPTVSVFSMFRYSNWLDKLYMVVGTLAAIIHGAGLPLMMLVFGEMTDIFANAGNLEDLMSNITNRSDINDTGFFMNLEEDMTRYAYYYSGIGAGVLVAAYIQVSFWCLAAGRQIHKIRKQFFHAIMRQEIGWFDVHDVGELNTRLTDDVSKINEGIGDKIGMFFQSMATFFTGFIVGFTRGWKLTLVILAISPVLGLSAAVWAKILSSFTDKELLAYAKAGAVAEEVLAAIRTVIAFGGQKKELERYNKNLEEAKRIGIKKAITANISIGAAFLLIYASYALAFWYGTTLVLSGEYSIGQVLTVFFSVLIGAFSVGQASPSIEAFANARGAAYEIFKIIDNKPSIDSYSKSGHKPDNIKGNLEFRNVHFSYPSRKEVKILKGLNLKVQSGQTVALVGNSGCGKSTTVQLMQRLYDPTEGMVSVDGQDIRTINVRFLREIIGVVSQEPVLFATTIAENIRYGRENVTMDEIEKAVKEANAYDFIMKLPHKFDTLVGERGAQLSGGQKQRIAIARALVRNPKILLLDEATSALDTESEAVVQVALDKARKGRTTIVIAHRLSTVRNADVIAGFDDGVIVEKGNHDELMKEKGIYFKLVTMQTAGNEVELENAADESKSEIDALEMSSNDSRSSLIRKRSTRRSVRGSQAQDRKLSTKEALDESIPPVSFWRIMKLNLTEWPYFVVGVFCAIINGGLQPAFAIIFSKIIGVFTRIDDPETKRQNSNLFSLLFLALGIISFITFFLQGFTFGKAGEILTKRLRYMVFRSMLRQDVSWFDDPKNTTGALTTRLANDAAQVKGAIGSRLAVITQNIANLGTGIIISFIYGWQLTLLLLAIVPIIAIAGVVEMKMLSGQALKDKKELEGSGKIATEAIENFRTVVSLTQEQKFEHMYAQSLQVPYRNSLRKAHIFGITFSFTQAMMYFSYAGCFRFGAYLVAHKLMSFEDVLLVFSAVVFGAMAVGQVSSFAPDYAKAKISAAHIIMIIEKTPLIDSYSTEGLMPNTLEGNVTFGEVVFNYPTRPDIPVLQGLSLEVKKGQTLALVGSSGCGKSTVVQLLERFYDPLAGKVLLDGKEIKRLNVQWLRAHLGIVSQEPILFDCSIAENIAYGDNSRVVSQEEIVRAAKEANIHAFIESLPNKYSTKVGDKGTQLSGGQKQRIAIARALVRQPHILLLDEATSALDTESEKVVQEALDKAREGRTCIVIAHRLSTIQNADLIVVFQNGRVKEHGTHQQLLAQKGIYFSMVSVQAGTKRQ
Attribute measured: fractional inhibitory concentration index (FICI)

{"Compound": "CC(O)(CO)CC[C@H]1OC(C)(C)O[C@]1(C)[C@H]1CC[C@@]2(O)C3=CC(=O)[C@]4(O)C[C@@H](O)[C@@H](O)C[C@]4(C)[C@H]3CC[C@]12C (stereo not given in full)", "Observed measurement": 0.42}
{"Compound": "C=C(C)CC[C@@H](O)[C@](C)(O)[C@H]1CC[C@@]2(O)C3=CC(=O)[C@@H]4C[C@@H](O)[C@@H](O)C[C@]4(C)C3=CC[C@]12C", "Observed measurement": 1.75}
{"Compound": "CC(C)(O)CCC[C@](C)(O)[C@H]1CC[C@@]2(O)C3=CC(=O)[C@@H]4C[C@@H](O)[C@@H](O)[C@@H](O)[C@]4(C)[C@H]3CC[C@]12C", "Observed measurement": 1.37}
{"Compound": "CC(C)(O)CC[C@H]1OC(C)(C)O[C@]1(C)[C@H]1CC[C@@]2(O)C3=CC(=O)[C@@H]4C[C@@H](O)[C@@H](O)[C@@H](O)[C@]4(C)[C@H]3CC[C@]12C", "Observed measurement": 1.16}
{"Compound": "CC(C)(O)CC[C@@H](O)[C@](C)(O)[C@H]1CC[C@@]2(O)C3=CC(=O)[C@@H]4C[C@@H](O)CC[C@]4(C)[C@H]3CC[C@]12C", "Observed measurement": 1.05}
